Provenance of the data: patent US20230263822A1

monocytes: recorded values
Protocol description: Hematology assays in cynomolgus monkeys (Example 46)
Type: in vivo
Setup conditions: Day 31
Strand notation (5' to 3'): a small letter for the sugar, then the base; units joined by * are phosphorothioate-linked, units joined directly phosphodiester-linked; [ ] holds rarer units or linkages, { } end groups; capitals alone tell only the bases. e = 2'-O-(2-methoxyethyl) (MOE); [5mC] = 5-methylcytosine; d = 2'-deoxy (DNA)
Observable: monocytes (%)

>  <Substance>
ISIS 449711: 3-8-3, 4-8-4, 2-10-2, 3-10-3 or 4-10-4 MOE microwalk gapmer (Table 46) (antisense eA*e[5mC]*dA*dG*dT*dT*dT*d[5mC]*dT*dG*dG*d[5mC]*eA*eG)

>  <Quantity unit>
%

>  <Result>
6.9

$$$$
>  <Substance>
ISIS 416850: MOE gapmer, nucleobases 1275 to 1318 of SEQ ID NO: 1 (Table 8) (antisense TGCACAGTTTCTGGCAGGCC; MOE gapmer, wing and gap sizes not given here)

>  <Quantity unit>
%

>  <Result>
3.7

$$$$
>  <Substance>
ISIS 449710: 3-8-3, 4-8-4, 2-10-2, 3-10-3 or 4-10-4 MOE microwalk gapmer (Table 46) (antisense e[5mC]*eA*e[5mC]*dA*dG*dT*dT*dT*d[5mC]*dT*dG*dG*d[5mC]*eA*eG*eG)

>  <Quantity unit>
%

>  <Result>
2.4

$$$$
>  <Substance>
ISIS 449709: 3-8-3, 4-8-4, 2-10-2, 3-10-3 or 4-10-4 MOE microwalk gapmer (Table 46) (antisense eG*e[5mC]*eA*e[5mC]*dA*dG*dT*dT*dT*d[5mC]*dT*dG*dG*d[5mC]*eA*eG*eG*e[5mC])

>  <Quantity unit>
%

>  <Result>
2.8

$$$$
